Hey, just so you know, these numbers are from ChEMBL document CHEMBL3351472.

Molecular target: Vitamin D3 receptor (Rattus norvegicus)
Sequence (whole entry): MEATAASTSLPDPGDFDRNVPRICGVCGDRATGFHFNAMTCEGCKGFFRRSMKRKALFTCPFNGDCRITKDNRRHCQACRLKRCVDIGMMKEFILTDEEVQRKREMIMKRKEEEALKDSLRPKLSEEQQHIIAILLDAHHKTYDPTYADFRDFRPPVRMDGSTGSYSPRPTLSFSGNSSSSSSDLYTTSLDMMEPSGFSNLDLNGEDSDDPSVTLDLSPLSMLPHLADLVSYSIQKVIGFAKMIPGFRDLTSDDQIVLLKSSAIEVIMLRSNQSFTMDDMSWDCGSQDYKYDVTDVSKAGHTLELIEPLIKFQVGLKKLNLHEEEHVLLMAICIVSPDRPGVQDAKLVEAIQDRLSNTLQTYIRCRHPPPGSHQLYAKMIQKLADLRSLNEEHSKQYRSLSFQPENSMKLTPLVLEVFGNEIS
Test: Ratio of 1alpha,25-(OH)2D3 ED50 to compound ED50 for VDR-mediated 24-hydroxylase gene expression in rat ROS 17/2.8 cells after 16 hrs by luciferase reporter assay
Format: cell-based
// reported Ratio ED50 for each item listed
When you answer, write just the number.

C=C1CC/C(=C/C=C2\CCC[C@]3(C)[C@@H]([C@H](C)CCCC(C)(C)O)CC[C@@H]23)C[C@H]1O    0.7
C=C1CC(=C)[C@H](O)C/C1=C/C=C1\CCC[C@]2(C)[C@@H]([C@@H](C)CCCC(C)(C)O)CC[C@@H]12    0.2
C=C1CC[C@H](O)C/C1=C/C=C1\CCC[C@]2(C)[C@@H]([C@H](C)CCCC(C)(C)O)CC[C@@H]12 [CALCIFEDIOL ANHYDROUS]    0.001

Inquiry: Quick check: Ratio ED50 on Vitamin D3 receptor (Rattus norvegicus), item C=C1CC/C(=C/C=C2\CCC[C@]3(C)[C@@H]([C@H](C)CCCC(C)(C)O)CC[C@@H]23)C(=C)[C@H]1O ?
Reply text: 1

Inquiry: Find Ratio ED50 (Vitamin D3 receptor (Rattus norvegicus)) for the entry C=C1CC/C(=C/C=C2\CCC[C@]3(C)[C@@H]([C@@H](C)CCCC(C)(C)O)CC[C@@H]23)C(=C)[C@H]1O
Reply text: 1

Inquiry: Param readout= Ratio ED50; system= Vitamin D3 receptor (Rattus norvegicus); entry= C=C1CC(=C)[C@H](O)C/C1=C/C=C1\CCC[C@]2(C)[C@@H]([C@H](C)CCCC(C)(C)O)CC[C@@H]12 ; returns value.
Reply text: 0.0005

Inquiry: Can you look up Ratio ED50 on Vitamin D3 receptor (Rattus norvegicus) for C=C1[C@H](O)CC(=C/C=C2\CCC[C@]3(C)[C@@H]([C@@H](C)CCCC(C)(C)O)CC[C@@H]23)C[C@H]1O [DP001] ?
Reply text: 29
